Biological target: T1, human MAdCAM protein (human, UniProt Q13477 19-317)
T1 construct: used for Octet, SPR, ELISA and plate capture; construct not described; also called recombinant human MAdCAM; soluble monomeric human MAdCAM
T1 sequence (looked up): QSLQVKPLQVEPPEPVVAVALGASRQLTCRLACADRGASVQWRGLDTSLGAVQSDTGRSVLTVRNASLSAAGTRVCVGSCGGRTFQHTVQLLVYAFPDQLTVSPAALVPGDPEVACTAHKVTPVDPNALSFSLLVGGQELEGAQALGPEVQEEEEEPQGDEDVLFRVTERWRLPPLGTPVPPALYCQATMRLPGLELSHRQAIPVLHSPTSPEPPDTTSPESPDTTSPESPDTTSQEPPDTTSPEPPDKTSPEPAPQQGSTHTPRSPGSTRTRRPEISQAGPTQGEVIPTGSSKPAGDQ
Test: Octet

{"columns": ["binder", "binding result"],
 "data": [
  ["MAdCAM antibody Clone ID 20 of Table 6 (scFv) (scFv) scFv: EVQLLESGGGLVQPGGSLRLSCAASGFTFDDYAMHWVRQAPGKGLEWVSYIDTSSSHLYYADSVKGRFTISRDNSKNTLYLQMNSLRAEDTAVYYCARDEAAAGYYGMDVWGQGTTVTVSSGGGGSGGGGSGGGGSGGGGSDIQMTQSPSSLSASVGDRVTITCQAGQDISNYLNWYQQKPGKAPKLLIYDASNLETGVPSRFSGSGSGTDFTLTISSLQPEDFATYYCQQTYSTPITFGQGTKLEIK", "binds"],
  ["MAdCAM antibody Clone ID 64 of Table 6 (scFv) (scFv) scFv: EVQLLESGGGLVKPGGSLRLSCAASGFAFSSHWMHWVRQAPGKGLEWVAGTSGSGESRDYADFVKGRFTISRDDSKNTLYLQMNSLKTEDTAVYYCARETYYYYYMDVWGKGTTVTVSSGGGGSGGGGSGGGGSGGGGSDIQMTQSPSSLSASVGDRVTITCRASQGISNYLAWYQQKPGKAPKLLIYDAANLEGGVPSRFSGSGSGTDFTLTISSLQPEDFATYYCQQSDIFPPTFGQGTKVEIK", "binds"],
  ["MAdCAM antibody Clone ID 65 of Table 6 (scFv) (scFv) scFv: QVQLVQSGAEVKKPGASVKVSCKASGYTFTRHWIHWVRQAPGQGLEWMGWINVKTGGAGYAQKFQGRVTMTRDTSTSTVYMELSSLRSEDTAVYYCARESSGWYGTDVWGQGTTVTVSSGGGGSGGGGSGGGGSGGGGSDIQMTQSPSSLSASVGDRATITCRASQSISNYLAWYQQKPGKAPKLLIYAASSLQSGVPSRFSGSGSGTDFTLTISSLQPEDFATYYCQQSNSFPLTFGGGTKVEIK", "binds"]
]}
